target: Dual specificity tyrosine-phosphorylation-regulated kinase 1A (Homo sapiens, UniProt Q13627)

{"smiles.data": "Cc1nc2ccc(-c3ccnc(N)c3)nc2n1-c1ccc(N2CCN(C)CC2)cc1F", "Kd [nM]": 0.91}

====

Recorded Kd values for a group of molecules are listed next.
molecular target: Protein cereblon/Dual specificity tyrosine-phosphorylation-regulated kinase 1A (Homo sapiens, UniProt Q13627+Q96SW2); experiment: Competitive binding affinity to CRBN/DYRK1A (unknown origin) assessed as dissociation constant
result.type: Kd (nM)

{"molecule": "Cc1nc2ccc(-c3ccnc(N)c3)nc2n1-c1ccc(N2CCN(CCOCCOCCOCCOCCNc3cc4c(cc3F)C(=O)N(C3CCC(=O)NC3=O)C4=O)CC2)c(F)c1 (stereo not drawn)", "value.observed": 13}
{"molecule": "Cc1nc2ccc(-c3ccnc(N)c3)nc2n1-c1ccc(N2CCN(CCOCCOCCOCCC(=O)NC3CN(c4ccc5c(c4)C(=O)N(C4CCC(=O)NC4=O)C5=O)C3)CC2)c(F)c1 (stereo not drawn)", "value.observed": 3.2}
{"molecule": "Cc1nc2ccc(-c3ccnc(N)c3)nc2n1-c1ccc(N2CCN(C(=O)CCCN3CCN(Cc4ccc(CNc5cccc6c5CN(C5CCC(=O)NC5=O)C6=O)cc4)CC3)CC2)c(F)c1 (stereo not drawn)", "value.observed": 1.7}
{"molecule": "Cc1nc2ccc(-c3ccnc(N)c3)nc2n1-c1ccc(N2CCN(CCOCCOCCNc3cccc4c3C(=O)N(C3CCC(=O)NC3=O)C4=O)CC2)c(F)c1 (stereo not drawn)", "value.observed": 1.4}
{"molecule": "Cc1nc2ccc(-c3ccnc(N)c3)nc2n1-c1ccc(N2CCN(C(=O)CN3CCC(CC(=O)N4CCC(n5cc(CNc6cccc7c6C(=O)N(C6CCC(=O)NC6=O)C7=O)cn5)CC4)CC3)CC2)c(F)c1 (stereo not drawn)", "value.observed": 0.64}
{"molecule": "Cc1nc2ccc(-c3ccnc(N)c3)nc2n1-c1ccc(N2CCN(C(=O)CCN3CCN(Cc4ccc(CNc5cccc6c5CN(C5CCC(=O)NC5=O)C6=O)cc4)CC3)CC2)c(F)c1 (stereo not drawn)", "value.observed": 20}
{"molecule": "Cc1nc2ccc(-c3ccnc(N)c3)nc2n1-c1ccc(N2CCN(C(=O)CCCCN3CCN(Cc4ccc(CNc5cccc6c5CN(C5CCC(=O)NC5=O)C6=O)cc4)CC3)CC2)c(F)c1 (stereo not drawn)", "value.observed": 3.3}
{"molecule": "Cc1nc2ccc(-c3ccnc(N)c3)nc2n1-c1ccc(N2CCN(CCOCCNc3cccc4c3C(=O)N(C3CCC(=O)NC3=O)C4=O)CC2)c(F)c1 (stereo not drawn)", "value.observed": 1.4}

====

test: Plasma protein binding (unknown origin); format: ADME, cell-free; details: read-out: PPB

{"molecule": "Cc1nc2ccc(-c3ccnc(N)c3)nc2n1-c1ccc(N2CCN(CC#Cc3ccc(N4CCC(C(=O)N5CCC(n6cc(CNc7cccc8c7C(=O)N(C7CCC(=O)NC7=O)C8=O)cn6)CC5)CC4)nc3)CC2)c(F)c1 (stereo unspecified)", "fraction unbound": "< 0.0062"}

====

target: von Hippel-Lindau disease tumor suppressor/Dual specificity tyrosine-phosphorylation-regulated kinase 1B (Homo sapiens, UniProt P40337+Q9Y463); experiment: Competitive binding affinity to VHL/DYRK1B (unknown origin) assessed as dissociation constant

{"smiles.data": "Cc1ncsc1-c1ccc(CNC(=O)[C@@H]2C[C@@H](O)CN2C(=O)[C@@H](NC(=O)CCOCCOCCOCCOCCN2CCN(c3ccc(-n4c(C)nc5ccc(-c6ccnc(N)c6)nc54)cc3F)CC2)C(C)(C)C)cc1", "readout.unit": "nM", "Kd": 6.6}
{"smiles.data": "Cc1ncsc1-c1ccc(CNC(=O)[C@@H]2C[C@@H](O)CN2C(=O)[C@@H](NC(=O)CCOCCOCCOCCN2CCN(c3ccc(-n4c(C)nc5ccc(-c6ccnc(N)c6)nc54)cc3F)CC2)C(C)(C)C)cc1", "readout.unit": "nM", "Kd": 3.6}
{"smiles.data": "Cc1ncsc1-c1ccc(CNC(=O)[C@@H]2C[C@@H](O)CN2C(=O)[C@@H](NC(=O)CCOCCN2CCN(c3ccc(-n4c(C)nc5ccc(-c6ccnc(N)c6)nc54)cc3F)CC2)C(C)(C)C)cc1", "readout.unit": "nM", "Kd": 5.5}
{"smiles.data": "Cc1ncsc1-c1ccc(CNC(=O)[C@@H]2C[C@@H](O)CN2C(=O)[C@@H](NC(=O)CCOCCOCCN2CCN(c3ccc(-n4c(C)nc5ccc(-c6ccnc(N)c6)nc54)cc3F)CC2)C(C)(C)C)cc1", "readout.unit": "nM", "Kd": 6.9}

====

experiment: Metabolic stability in mouse liver microsomes assessed as half life; format: ADME, Microsome

{"molecule": "Cc1nc2ccc(-c3ccnc(N)c3)nc2n1-c1ccc(N2CCN(CC#Cc3ccc(N4CCC(C(=O)N5CCC(n6cc(CNc7cccc8c7C(=O)N(C7CCC(=O)NC7=O)C8=O)cn6)CC5)CC4)nc3)CC2)c(F)c1 (stereo unspecified)", "readout.unit": "h", "half-life": 7.38}

====

Recorded Kd values for a group of compounds are listed next.
biological target: von Hippel-Lindau disease tumor suppressor/Dual specificity tyrosine-phosphorylation-regulated kinase 1A (Homo sapiens, UniProt P40337+Q13627); test: Competitive binding affinity to VHL/DYRK1A (unknown origin) assessed as dissociation constant by competition binding assay; assay type: protein assay

{"smiles.data": "Cc1ncsc1-c1ccc(CNC(=O)[C@@H]2C[C@@H](O)CN2C(=O)[C@@H](NC(=O)CCOCCOCCN2CCN(c3ccc(-n4c(C)nc5ccc(-c6ccnc(N)c6)nc54)cc3F)CC2)C(C)(C)C)cc1", "readout.unit": "nM", "Kd": 2.2}
{"smiles.data": "Cc1ncsc1-c1ccc(CNC(=O)[C@@H]2C[C@@H](O)CN2C(=O)[C@@H](NC(=O)CCOCCN2CCN(c3ccc(-n4c(C)nc5ccc(-c6ccnc(N)c6)nc54)cc3F)CC2)C(C)(C)C)cc1", "readout.unit": "nM", "Kd": 3.4}
{"smiles.data": "Cc1ncsc1-c1ccc(CNC(=O)[C@@H]2C[C@@H](O)CN2C(=O)[C@@H](NC(=O)CCOCCOCCOCCN2CCN(c3ccc(-n4c(C)nc5ccc(-c6ccnc(N)c6)nc54)cc3F)CC2)C(C)(C)C)cc1", "readout.unit": "nM", "Kd": 1.3}
{"smiles.data": "Cc1ncsc1-c1ccc(CNC(=O)[C@@H]2C[C@@H](O)CN2C(=O)[C@@H](NC(=O)CCOCCOCCOCCOCCN2CCN(c3ccc(-n4c(C)nc5ccc(-c6ccnc(N)c6)nc54)cc3F)CC2)C(C)(C)C)cc1", "readout.unit": "nM", "Kd": 1.4}

====

test: Permeability of the compound in human Caco-2 cells across basolateral side to apical side; type: ADME, cell-based; conditions: read-out: permeability
result.type: Papp B→A

{"compound": "Cc1nc2ccc(-c3ccnc(N)c3)nc2n1-c1ccc(N2CCN(CC#Cc3ccc(N4CCC(C(=O)N5CCC(n6cc(CNc7cccc8c7C(=O)N(C7CCC(=O)NC7=O)C8=O)cn6)CC5)CC4)nc3)CC2)c(F)c1 (stereo unspecified)", "result.type": "Papp B→A", "value.observed": "< 0.243 ×10⁻⁶ cm/s"}

====

experiment: Solubility of the compound in FaSSIF buffer; format: physicochemical

{"molecule": "Cc1nc2ccc(-c3ccnc(N)c3)nc2n1-c1ccc(N2CCN(CC#Cc3ccc(N4CCC(C(=O)N5CCC(n6cc(CNc7cccc8c7C(=O)N(C7CCC(=O)NC7=O)C8=O)cn6)CC5)CC4)nc3)CC2)c(F)c1 (stereo unspecified)", "solubility / µM": 0.16}

====

assay: Half life in mouse blood; format: ADME, tissue-based
result.type: half-life (h)

{"molecule": "Cc1nc2ccc(-c3ccnc(N)c3)nc2n1-c1ccc(N2CCN(CC#Cc3ccc(N4CCC(C(=O)N5CCC(n6cc(CNc7cccc8c7C(=O)N(C7CCC(=O)NC7=O)C8=O)cn6)CC5)CC4)nc3)CC2)c(F)c1 (stereo unspecified)", "value.observed": 15.2}

====

assay: AUC last in mouse at 10 mg/kg, ip administered as single dose; assay type: ADME, organism-based; settings: in vivo
result.type: AUC(0-t) (ng·h/mL)

{"molecule": "Cc1nc2ccc(-c3ccnc(N)c3)nc2n1-c1ccc(N2CCN(CC#Cc3ccc(N4CCC(C(=O)N5CCC(n6cc(CNc7cccc8c7C(=O)N(C7CCC(=O)NC7=O)C8=O)cn6)CC5)CC4)nc3)CC2)c(F)c1 (stereo unspecified)", "value.observed": 26300}

====

test: MRT in mouse at 10 mg/kg, po administered as single dose; format: ADME, organism-based; details: in vivo
result.type: MRT (h)

{"compound": "Cc1nc2ccc(-c3ccnc(N)c3)nc2n1-c1ccc(N2CCN(CC#Cc3ccc(N4CCC(C(=O)N5CCC(n6cc(CNc7cccc8c7C(=O)N(C7CCC(=O)NC7=O)C8=O)cn6)CC5)CC4)nc3)CC2)c(F)c1 (stereo unspecified)", "result.type": "MRT", "value.observed": 2.51}
